Where do the numbers come from? From ChEMBL document CHEMBL5532711.

test system: ASPC1; experiment: Cytotoxicity against human ASPC1 cells harboring KRAS G12D mutant assessed as inhibition of cell growth; format: functional, cell-based
Here, each record is paired with measured pIC50 data.
Entry type: numeric. Quantity: pIC50, the -log10 of concentration in molar units.

Example cases with answers are listed next.
{"columns": ["Compound", "Result Number"],
 "data": [
  ["Cc1nc(Nc2ncc(C(=O)Nc3c(C)cccc3Cl)s2)cc(N2CCN(CCO)CC2)n1 [DASATINIB ANHYDROUS]", 5.48],
  ["Cc1cc2c(c(=O)o1)[C@@]1(C)C=CC(=O)[C@H]1[C@@H](OC[C@H]1C(=O)CC[C@@H]1C)O2", 5.03],
  ["CCO[C@@H]1Oc2cc(C)oc(=O)c2[C@]2(C)C=CC(=O)[C@H]12", 5.66]
]}

Provide the reported pIC50 (system: ASPC1) for `Cc1cc2c(c(=O)o1)[C@]1(C)C=CC(=O)[C@@H]1[C@H](O)O2`
5.77

Provide the reported pIC50 (system: ASPC1) for `Cc1cc2c(c(=O)o1)[C@@]1(C)C[C@H](O)C[C@H]1O2`
5.82

* * *

test system: MCF7; experiment: Cytotoxicity against human MCF7 cells assessed as inhibition of cell growth; type: functional, cell-based
Outcome Measure: pIC50
Entry type: numeric. Quantity: pIC50, the -log10 of concentration in molar units.

Example cases with answers are listed next.
{"columns": ["Compound", "Study Target", "pIC50"],
 "data": [
  ["Cc1cc2c(c(=O)o1)[C@@]1(C)C[C@H](O)C[C@H]1O2", "MCF7", 5.34],
  ["Cc1cc2c(c(=O)o1)[C@@]1(C)CC(=O)C[C@H]1O2 (racemic)", "MCF7", 5.00],
  ["C=C1[C@@H](O)C[C@H]2Oc3cc(C)oc(=O)c3[C@@]12C", "MCF7", 6.70],
  ["CCO[C@@H]1Oc2cc(C)oc(=O)c2[C@]2(C)C=CC(=O)[C@H]12", "MCF7", 6.15],
  ["Cc1cc2c(c(=O)o1)[C@@]1(C)C=CC(=O)[C@H]1[C@@H](OC[C@H]1C(=O)CC[C@@H]1C)O2", "MCF7", 6.10]
]}

Provide the reported pIC50 (system: MCF7) for `Cc1cc2c(c(=O)o1)[C@@]1(C)[C@H](CO)[C@@H](O)C[C@H]1O2`
5.26

Provide the reported pIC50 (system: MCF7) for `Cc1cc2c(c(=O)o1)[C@]1(C)C=CC(=O)[C@@H]1[C@H](O)O2`
5.28

* * *

tested on: MCF7; test: Cytotoxicity against human MCF7 cells assessed as inhibition of cell growth; format: functional, cell-based
pIC50: −log10 of the molar value.
Here, each record is paired with measured pIC50 data.

{"columns": ["Compound", "pIC50"],
 "data": [
  ["CO[C@@H]1Oc2cc(C)oc(=O)c2[C@]2(C)C=CC(=O)[C@H]12", "< 5.00"],
  ["Cc1cc2c(c(=O)o1)[C@]1(C)C=CC(=O)[C@@H]1[C@H](OC[C@H]1C(=O)CC[C@@H]1C)O2", "< 5.00"]
]}

Kindly consider the entry below.
Check the records and state pIC50 for Cc1nc(Nc2ncc(C(=O)Nc3c(C)cccc3Cl)s2)cc(N2CCN(CCO)CC2)n1 [DASATINIB ANHYDROUS]
< 5.00
